# Test system: human lung cancer strain NCI-H441;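 further: cell proliferation inhibition after four days measured by CellTiter-Glo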
endpoint_label: IC50 (nM)
Give your result in nM as a bare value.

molecule: CCCN1C(=O)CN(C)C(=O)CN(C)C(=O)[C@H]([C@@H](C)CC)NC(=O)[C@@H]2CCCCCCC[C@@H](NC(=O)[C@@H]3C[C@@H](OCC)CN3C(=O)[C@H](CCc3cc(F)c(C(F)(F)F)c(F)c3)NC(=O)CN(C)C(=O)[C@@H]1Cc1ccc(C(F)(F)F)cc1)C(=O)N(C)[C@@H](C1CCCC1)C(=O)N(C)[C@H](C(=O)N(C)C)CC(=O)N2C [PP0925]
IC50 [nM]: 91

Turning now to a further molecule:
Exam item: Record request: IC50 value, item CCO[C@@H]1C[C@H]2C(=O)NC3(COC3)C(=O)N(C)[C@@H](C3CCCC3)C(=O)N(C)[C@H](C(=O)N(C)C)CC(=O)N(C)[C@@H](CC)C(=O)N[C@@H]([C@@H](C)CC)C(=O)N(C)CC(=O)N(C)[C@H]3C/C=C\CCN(C3=O)[C@@H](Cc3ccc(C(F)(F)F)cc3)C(=O)N(C)CC(=O)N[C@@H](CCc3cc(F)c(C(F)(F)F)c(F)c3)C(=O)N2C1 [PP1278]
Marked response: 45.7

###

# test_target: GDP-bound KRAS wild-type protein (Homo sapiens)
# Sequence (P01116 whole entry): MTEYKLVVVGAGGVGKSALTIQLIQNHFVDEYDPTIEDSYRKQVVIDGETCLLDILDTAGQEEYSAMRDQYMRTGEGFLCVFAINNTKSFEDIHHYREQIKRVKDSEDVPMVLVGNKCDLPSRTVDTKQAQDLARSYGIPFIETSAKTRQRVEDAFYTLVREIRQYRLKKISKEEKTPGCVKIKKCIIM
# assay_explanation: Binding to KRAS by surface plasmon resonance (SPR), Single Cycle Kinetics
# run_conditions: SPR, Single Cycle Kinetics, 1:1 binding model; GDP-bound KRAS wild-type protein; read-out: KRAS KD
Kd values by entry
Give your result in nM as a bare value.

See these solved cases before continuing.
smiles_representation: CC[C@H](C)[C@@H]1NC(=O)[C@H](CC2CCCC2)N(C)C(=O)C[C@@H](C(=O)N(C)C)N(C)C(=O)[C@H](C2CCCC2)N(C)C(=O)C2(CCC2)NC(=O)[C@@H]2C[C@@H](C(F)(F)F)CN2C(=O)[C@H](CCc2cc(F)c(C(F)(F)F)c(F)c2)NC(=O)CN(C)C(=O)[C@H](Cc2ccc(C(F)(F)F)cc2)N2CC/C=C\C[C@@H](C2=O)N(C)C(=O)CN(C)C1=O
Kd / nM: 0.092

smiles_representation: CCO[C@@H]1C[C@H]2C(=O)NC3(CCC3)C(=O)N(C)[C@@H](C(CC)CC)C(=O)N(C)[C@H](C(=O)N(C)C)CC(=O)N(C)[C@@H](CC3CC3)C(=O)N[C@@H]([C@@H](C)CC)C(=O)N(C)CC(=O)N(C)[C@H]3C/C=C\CCN(C3=O)[C@@H](Cc3ccc(C(F)(F)F)cc3)C(=O)N(C)CC(=O)N[C@@H](CCc3ccc(C(F)(F)F)c(OC)c3)C(=O)N2C1
Kd / nM: 0.27

smiles_representation: CCO[C@@H]1C[C@H]2C(=O)NC3(CCC3)C(=O)N(C)[C@@H](C3CCCC3)C(=O)N(C)[C@H](C(=O)N3CCOCC3)CC(=O)N(C)[C@@H](CC3CCC3)C(=O)N[C@@H]([C@@H](C)CC)C(=O)N(C)CC(=O)N(C)[C@H]3C/C=C\CCN(C3=O)[C@@H](Cc3ccc(C(F)(F)F)cc3)C(=O)N(C)CC(=O)N[C@@H](CCc3cc(F)c(C(F)(F)F)c(F)c3)C(=O)N2C1
Kd / nM: 0.22

smiles_representation: CCO[C@@H]1C[C@H]2C(=O)NC3(CCC3)C(=O)N(C)[C@@H](C3CCCC3)C(=O)N(C)[C@H](C(=O)N(C)C)CC(=O)N(C)[C@@H](CC)C(=O)N[C@@H]([C@@H](C)CC)C(=O)N(C)CC(=O)N(C)[C@H]3C/C=C\CCN(C3=O)[C@@H](Cc3ccc(C(F)(F)F)cc3)C(=O)N(C)CC(=O)N[C@@H](CCc3ccc(Cl)c(Cl)c3)C(=O)N2C1
Kd / nM: 0.18

smiles_representation: CCCCCC[C@H]1C(=O)N[C@@H]([C@@H](C)CC)C(=O)N(C)CC(=O)N(C)[C@H]2C/C=C\CCN(C2=O)[C@@H](Cc2ccc(C(F)(F)F)cc2)C(=O)N(C)CC(=O)N[C@@H](CCc2ccc(Cl)c(Cl)c2)C(=O)N2C[C@H](OCC)C[C@H]2C(=O)NC2(CCC2)C(=O)N(C)[C@@H](C(CC)CC)C(=O)N(C)[C@H](C(=O)N(C)C)CC(=O)N1C
Kd / nM: 0.88

Exam item: Record request: Kd value, item CCO[C@@H]1C[C@H]2C(=O)NC3(CCOCC3)C(=O)N(C)[C@@H](C3CCCC3)C(=O)N(C)[C@H](C(=O)N(C)C)CC(=O)N(C)[C@@H](CC)C(=O)N[C@@H]([C@@H](C)CC)C(=O)N(C)CC(=O)N(C)[C@H]3C/C=C\CCN(C3=O)[C@@H](Cc3ccc(C(F)(F)F)cc3)C(=O)N(C)CC(=O)N[C@@H](CCc3cc(F)c(C(F)(F)F)c(F)c3)C(=O)N2C1
Marked response: 0.27
